# E^11 per record follows
- EXPERIMENT SUMMARY: UV absorption of the compounds of Table 2 (absorption maximum and specific extinction)
- Assay type: physicochemical
- MEASUREMENT CONTEXT: specific extinction at λmax, Table 2
Format: numeric value only, no unit, no commentary.

Past entries and their recorded results:
QUERY: Quick check: E^11 of COc1ccc(NC=C(C#N)C(=O)C(C)(C)C)cc1 ?
RESULT: 841

QUERY: Would you kindly repeat that for CCCCC(CC)COC(=O)c1ccccc1NC=C(C#N)C(=O)C(C)(C)C (stereo not drawn) ?
RESULT: 717

QUERY: Would you kindly repeat that for CCCCC(CC)COC(=O)c1ccc(NC=C(C(=O)OCC)C(=O)OCC)cc1 (stereo not drawn) ?
RESULT: 700

QUERY: Would you kindly repeat that for CCCCC(CC)COC(=O)c1ccc(NC=C(C#N)C(=O)C(C)(C)C)cc1 (stereo not drawn) ?
RESULT: 860

QUERY: Would you kindly repeat that for CCCCC(CC)COC(=O)c1ccc(NC=C(C(C)=O)C(=O)OC)cc1 (stereo not drawn) ?
RESULT: 941

Kindly consider the entry below.
QUERY: Quick check: E^11 of CCCCC(CC)COC(=O)C(C#N)=CNc1cc(OC)cc(OC)c1 (stereo not drawn) ?
RESULT: 761
